# Organism: Bos taurus
# Assay procedure: Inhibition of bovine alpha chymotrypsin assessed as residual activity by spectrophotometry
Property measured: Ka (×10⁶ /M)

# Structure smiles, Unit, Value
data = [
    ("CC[C@H](C)[C@@H]1NC(=O)[C@@H]2CCCN2C(=O)[C@@H]2CCCN2C(=O)[C@H]([C@@H](C)CC)NC(=O)[C@H](CO)NC(=O)[C@H](CCCCN)NC(=O)[C@H]([C@@H](C)O)NC(=O)[C@@H]2CSSC[C@H](NC1=O)C(=O)N[C@@H](Cc1ccccc1)C(=O)N1CCC[C@H]1C(=O)N[C@@H](CC(=O)O)C(=O)NCC(=O)N[C@@H](CCCNC(=N)N)C(=O)N2", "×10⁶ /M", 4.9),
    ("CC[C@H](C)[C@@H]1NC(=O)[C@@H]2CCCN2C(=O)[C@@H]2CCCN2C(=O)[C@H]([C@@H](C)CC)NC(=O)[C@H](CO)NC(=O)[C@H](CCCCN)NC(=O)[C@H]([C@@H](C)O)NC(=O)[C@@H](NC(=O)[C@H](CCCNC(=N)N)NC(=O)CN)CSSC[C@@H](C(=O)N[C@@H](Cc2ccccc2)C(=O)N2CCC[C@H]2C(=O)N[C@@H](CC(=O)O)C(=O)O)NC1=O", "×10⁶ /M", 4.9),
]
